Read-out: CYP2E1 (gene 1571)
experimental_details: LTEA_HepaRG_CYP2E1: Life Technologies and Expression Analysis (LTEA) Assay for CYP2E1 using HepaRG (AID 2283485)
conditions: mRNA level, 48 h; actives raise or lower the signal
Active and inactive are the calls of the source. How the source made its calls: active means hit-call score of the fitted dose curve at least 0.9, where 1 is the maximum; inactive means score below 0.9.
Mark one answer only. Choices: active, inactive

Task: For "CCc1nc(N)nc(N)c1-c1ccc(Cl)cc1" , which call appears in the assay record?
Result: active

Task: For "O=C(O)c1[nH]n(-c2ccc(S(=O)(=O)O)cc2)c(=O)c1N=Nc1ccc(S(=O)(=O)O)cc1" , which call appears in the assay record?
Result: inactive

Task: For "O=C(N[C@@H](c1ccccc1)[C@@H]1CCCCN1)c1cccc(C(F)(F)F)c1Cl" , which call appears in the assay record?
Result: active

Task: For "N[C@@H](Cc1c[nH]c2ccccc12)C(=O)O" , which call appears in the assay record?
Result: inactive

Task: For "Nc1nc(Cl)nc2c1ncn2[C@H]1C[C@H](O)[C@@H](CO)O1" , which call appears in the assay record?
Result: active

Task: For "CCCCCCCCCCCCCCOS(=O)(=O)O" , which call appears in the assay record?
Result: active

Task: For "O=C(O)CN(CC(=O)O)CC(=O)O" , which call appears in the assay record?
Result: inactive

Please find the next molecule below.
Task: For "CN(C)C(=O)NC1(c2ccccc2)CCN(CC[C@@]2(c3ccc(F)c(F)c3)CN(C(=O)c3ccccc3)CCO2)CC1" , which call appears in the assay record?
Result: active
